# Stated conditions: 25 °C
Quick reference: log10 of solubility of the listed items.
Log10 applied to solubility; unit prior to transform: mM.

Fc1ccccc1Br = 0.30
CSCCC(N)C(=O)O (racemic) = 2.52
CC1CCC(C)(C)C1 (stereo unspecified) = -1.48
CCCC(=O)OC = 2.17
C[C@]12CCc3c(ccc4cc(O)ccc34)[C@@H]1CCC2=O = -2.24

Which log10 of solubility reading was recorded for the compound `NCC[C@H](O)C(=O)N[C@@H]1C[C@H](N)[C@@H](O[C@H]2O[C@H](CN)[C@@H](O)[C@H](O)[C@H]2O)[C@H](O)[C@H]1O[C@H]1O[C@H](CO)[C@@H](O)[C@H](N)[C@H]1O` ? 2.50

Another: `COc1ccc(C=O)cc1` 1.50

Then this compound: `COC(C)C` 2.94

Check `CC(=O)Nc1ccc(OC(C)=O)cc1` too. 1.09

Moving on to the next compound: `O=C(O)c1ccc([N+](=O)[O-])c([N+](=O)[O-])c1` 1.50

Please do the same for CCCCC(C)O (stereo unspecified) as well. 2.13

Also, `Fc1cccc(Br)c1` please. 0.33

Next entry: `Clc1ccc(-c2c(Cl)cc(Cl)cc2Cl)cc1` -3.51

And `CCCN(CCC)CCC` ? 0.72

Another compound: `CC1(C)[C@H](C(=O)O)CC[C@]1(C)C(=O)O` 1.58

* * *

Entries and their log10 of solubility
# Stated conditions: 27 °C
For clarity, the numbers are log10 values of solubility expressed in µM.

CCCCOC=O = 4.87
c1cc2c3c(c1)ccc1cccc(c13)C2 = 0.76
Cc1cc2c3ccccc3ccc2c2ccccc12 = -0.57
CC(=O)[C@@]1(O)CC[C@H]2[C@@H]3CCC4=CC(=O)CC[C@]4(C)[C@H]3CC[C@@]21C = 1.29

Which value of log10 of solubility has been reported for `C#C[C@]1(O)CC[C@H]2[C@@H]3CCc4cc(O)ccc4[C@H]3CC[C@@]21C` in the records? 1.58

Ok, now `Cc1c(C)c2c3ccccc3ccc2c2ccccc12` -1.01

Can you handle `C#C[C@]1(O)CC[C@H]2[C@@H]3CCC4=CC(=O)CC[C@]4(C)[C@H]3CC[C@@]21C` next? 0.34

Quick one: `Cc1cc2ccccc2c2ccc3ccccc3c12` -0.59

* * *

# Stated conditions: 20 °C
# binarize solubility: threshold 0.2 mM inclusive, high side TRUE, low side FALSE

O=C(O)CCCCCCCCCCC(=O)O = FALSE

Below: the item to evaluate.
Does `CC(C)Cl` have a reported solubility of at least 0.2 mM? TRUE

* * *

# Stated conditions: 25 °C
Mark y for reported solubility of 6 mM or greater; mark n for anything smaller.

Completed entries (count: 6):
O=C(O)CNC(=O)c1ccccc1 = y
CC(=O)Oc1ccccc1C(=O)O = y
CC(=O)C(C)(C)C = y
CCCCCCCBr = n
COc1ccc(C(O)(c2cncnc2)C2CC2)cc1 (stereo not drawn) = n
Clc1cc(Cl)cc(Cl)c1 = n

Dear colleague, could you confirm whether `Oc1ccc(-c2ccccc2)cc1` has solubility at or above 6 mM? n

Consider next the compound CC(C)[C@@H](N)C(=O)O (racemic) in the same way. y

* * *

# Stated conditions: 20 °C
Readout: log10 solubility (log10 of the value in µM)
The base-10 logarithm of solubility, taken with solubility in µM, is what appears here.

Look over these answered cases.
Oc1ccc(/N=N/c2ccccc2)cc1 = 2.66
O=C1NC(=O)C2C3C(C(O)(c4ccccc4)c4ccccn4)=CC(C3=C(c3ccccc3)c3ccccn3)C12 (stereo unspecified) = 2.07
CCCCCCCCCCCCC(=O)O = 2.19

So what does the record say about log10 solubility for `COCCCNc1nc(NC(C)C)nc(SC)n1` ? 3.07

What do you get for `CCCCNC(=O)n1c(NC(=O)OC)nc2ccccc21` ? 1.12

Try `CCOC(=O)CC` next. 5.27

Here is the next compound: `O=c1[nH]c(=O)c2[nH]c(=O)[nH]c2[nH]1` 2.55

What do you get for `CC(=O)C=C(C)C` ? 5.47

Input `Clc1ccc(Cl)c(-c2cccc(Cl)c2Cl)c1` -0.47

Here is the next compound: `CCOP(=O)(OCC)SCC(=O)NC(C)(C)C#N` 5.38

Next compound up: `Clc1cc(-c2cccc(Cl)c2Cl)cc(Cl)c1Cl` -1.41

* * *

# Stated conditions: 25 °C
Measured log10 of solubility accompanies every entry in the list below.
Could you please treat all values as log10 of solubility in mM?

// solved cases for log10 of solubility follow
O=C(O)C(c1ccccc1)c1ccccc1 = -0.22
C=CCBr = 1.50
CCSCCSP(=S)(OC)OC = -0.09
CCC(C)c1ccccc1 (stereo unspecified) = -0.88
C=CCCC = 0.32
COP(=O)(OC)OC = 3.55
C[C@@H]1CC[C@@]2(OC1)O[C@H]1C[C@H]3[C@@H]4CC=C5C[C@@H](O)CC[C@]5(C)[C@H]4CC[C@]3(C)[C@H]1[C@@H]2C = -4.32
Clc1ccc(-c2ccccc2)c(Cl)c1 = -2.29

Which log10 of solubility reading was recorded for the molecule `Clc1ccc(Cl)c(-c2cc(Cl)ccc2Cl)c1` ? -4.28

What do you have for `c1ccc2c(c1)OCCOCCOc1ccccc1OCCOCCO2` ? -1.69

Next molecule up: `Cc1ccc2cc(C)ccc2c1` -1.89

* * *

# Stated conditions: 20 °C
As shown below, each of these compounds has a reported log10 of solubility value.
Recall that a logarithmic scale is used here: each number is log10 of solubility in mM.

Returns the measured log10 of solubility for the input compound. Input: `O=C(O)CCc1ccccc1` 1.59

Continue with `Cc1nnc(-c2ccccc2)c(=O)n1N` 0.95

`CC(C)(O)C(Cl)(Cl)Cl` , same question. 1.65

Next compound: `CCSc1nc(NC(C)C)nc(NC(C)C)n1` -1.20

Entry CCNc1nc(NC(C)CC)nc(OC)n1 (stereo not given) please 0.43

Repeat with `Cc1cc(Cl)ccc1N=CN(C)C` 0.14

Do the same for CCC(C)OC(C)=O (stereo not given) please 1.73

Record: `C[C@@H](CCl)[N+](=O)[O-]` 1.81

Next compound up: `O=C(Nc1ccccc1)c1ccccc1I` -1.21

Ok, now `CCCCOC(=O)CCC` 0.54

Do the same for `CCCI` please 0.80

* * *

# Stated conditions: 22 °C
Readout: log10 solubility (log10 of the value in mM)
Note: values are log10 of solubility expressed in mM.

Solved entries:
Cc1ccccc1Oc1cccnn1 = 1.03
O=C(O)[C@@H](O)[C@H](O)[C@H](O)[C@@H](O)C(=O)O = 2.36

Looking for the measured log10 solubility of `CCOP(=S)(OCC)N1C(=O)c2ccccc2C1=O` , can you help? -0.35

Same thing, different compound: `CCOC(=O)C(=O)C(=O)OCC` 3.51

Entry to check: `CCC1(c2ccccc2)C(=O)NCNC1=O` 0.36

// repeat for `CCCOC=O` and report 2.40

And the next one, `O=C1NC(=O)C(c2ccccc2)(c2ccccc2)N1` ? -0.90

* * *

# Stated conditions: 25 °C
Threshold check on solubility: at or above 50 mM gives label 1, strictly below gives label 0.

Illustrative cases are given below, each with its answer.
Cc1nc(N(C)C)nc(OC(=O)N(C)C)c1C = label 0
O=C(O)c1cccc(O)c1 = label 1
O=C(O)c1ccccc1[N+](=O)[O-] = label 0

Check the entry `CCC(O)(CC)CC` : does solubility equal or exceed 50 mM? label 1

* * *

Quick reference: log10 solubility of the listed items.
# Stated conditions: 25 °C
On a log10 scale: recorded solubility, unit mM.

Answered examples (10):
O=C(O)c1ccc(F)cc1 = 0.93
CCC(C(=O)O)C(=O)O = 3.73
CCCCC(C)C = -1.60
OCc1ccccc1 = 2.57
CCOc1ccccc1 = 0.67
C#C[C@]1(OC(C)=O)CC[C@H]2[C@@H]3CCC4=CC(=O)CC[C@@H]4[C@H]3CC[C@@]21C = -1.79
CC(C)(OO)c1ccccc1 = 1.96
C#CCCCCCC = -0.66
Clc1ccc2c(c1)Oc1ccccc1O2 = -2.84
Cc1cccc(O)c1C = 1.57

# get_value(readout='log10 solubility', item= `c1ccc2c(c1)Cc1cc3ccccc3cc1-2` ) -4.96

# repeat for CC1CCCC(C)(C)C1 (stereo not drawn) -1.85

And `Cc1ccc2cc3ccccc3cc2c1` ? -3.95

* * *

# Stated conditions: 25 °C
Below, each of the molecules is paired with its reported log10 of solubility value.
Annotation: log10 of solubility, mM basis.

Examples from the recorded data:
CC(=O)O[C@@H](C(=O)O)c1ccccc1 = 1.77
CCCCCCCCl = -1.00
Nc1cc[nH]c(=O)n1 = 1.86
CCCCCCOC(C)=O = 0.55
O=C(O)c1cccc([N+](=O)[O-])c1C(=O)O = 1.98

Dear colleague, I am looking for the recorded log10 of solubility of the following molecule: `Cc1c(N)c(=O)n(-c2ccccc2)n1C` 3.55

Also `CC(=O)[C@@]1(O)CC[C@H]2[C@@H]3C[C@H](C)C4=CC(=O)C=C[C@]4(C)[C@@]3(F)[C@@H](O)C[C@@]21C` ? -1.10
